test system: Mus musculus; assay: Tested for its antiinflammatory activity in the arachidonic acid(AA) induced ear edema model; assay type: functional
ATTRIBUTE_MEASURED: ED50

[in] What ED50 appears in the records for this compound with Mus musculus? CC(C)c1ccc2c(c1)CCC1[C@](C)(CNCc3ccccc3C(=O)O)CCC[C@]21C.Cl (stereo partly drawn)
[out] >100 ug ear-1

[in] What ED50 appears in the records for this compound with Mus musculus? CC(N)CCCNC[C@]1(C)CCC[C@]2(C)c3ccc(C(C)C)cc3CCC12.Cl.Cl (stereo partly drawn)
[out] 100 ug ear-1

[in] What ED50 appears in the records for this compound with Mus musculus? CCN(CC)CCCC(C)Nc1c2ccc(Cl)cc2nc2ccc(OC)cc12 (stereo not drawn) [QUINACRINE]
[out] >100 ug ear-1

[in] What ED50 appears in the records for this compound with Mus musculus? C[C@@H]1C[C@H]2[C@@H]3CCC4=CC(=O)C=C[C@]4(C)[C@@]3(F)[C@@H](O)C[C@]2(C)[C@@]1(O)C(=O)CO [DEXAMETHASONE]
[out] >100 ug ear-1

[in] What ED50 appears in the records for this compound with Mus musculus? COc1ccc2c(c1)c(CC(=O)O)c(C)n2C(=O)c1ccc(Cl)cc1 [INDOMETHACIN]
[out] 1000 ug ear-1

[in] What ED50 appears in the records for this compound with Mus musculus? CC(=O)NC(CCN(C[C@]1(C)CCC[C@]2(C)c3ccc(C(C)C)cc3CCC12)C(C)=O)c1ccc(F)cc1 (stereo partly drawn)
[out] >100 ug ear-1

[in] What ED50 appears in the records for this compound with Mus musculus? CC(C)c1ccc2c(c1)CC[C@H]1C(C)(CN)CCC[C@]21C.Cl (stereo partly drawn)
[out] >100 ug ear-1

[in] What ED50 appears in the records for this compound with Mus musculus? CC(C)c1ccc2c(c1)CCC1[C@](C)(CNCC3CCCN3)CCC[C@]21C.Cl.Cl (stereo partly drawn)
[out] >100 ug ear-1

----------
Could you please report measured IC50 for the items listed next?
Provide the reading as a plain figure in µM.

[in] What IC50 appears in the records for this compound with Phospholipase A2, major isoenzyme (Sus scrofa, UniProt P00592)? CCN(CC)CCCC(C)Nc1c2ccc(Cl)cc2nc2ccc(OC)cc12 (centres undefined)
Sequence (P00592 whole entry): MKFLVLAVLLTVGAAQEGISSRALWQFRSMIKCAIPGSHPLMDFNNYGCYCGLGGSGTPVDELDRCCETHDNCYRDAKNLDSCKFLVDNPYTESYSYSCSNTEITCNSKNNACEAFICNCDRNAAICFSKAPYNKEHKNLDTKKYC
[out] 100

[in] What IC50 appears in the records for this compound with Phospholipase A2, major isoenzyme (Sus scrofa, UniProt P00592)? CC(N)CCCNC[C@]1(C)CCC[C@]2(C)c3ccc(C(C)C)cc3CCC12.Cl.Cl (some centres undefined)
[out] 5.4

[in] What IC50 appears in the records for this compound with Phospholipase A2, major isoenzyme (Sus scrofa, UniProt P00592)? CC(C)c1ccc2c(c1)CCC1[C@](C)(CNCC3CCCN3)CCC[C@]21C.Cl.Cl (some centres undefined)
[out] 28

----------
Target: Polyunsaturated fatty acid 5-lipoxygenase (Rattus norvegicus, UniProt P12527)
Sequence (P12527 whole entry): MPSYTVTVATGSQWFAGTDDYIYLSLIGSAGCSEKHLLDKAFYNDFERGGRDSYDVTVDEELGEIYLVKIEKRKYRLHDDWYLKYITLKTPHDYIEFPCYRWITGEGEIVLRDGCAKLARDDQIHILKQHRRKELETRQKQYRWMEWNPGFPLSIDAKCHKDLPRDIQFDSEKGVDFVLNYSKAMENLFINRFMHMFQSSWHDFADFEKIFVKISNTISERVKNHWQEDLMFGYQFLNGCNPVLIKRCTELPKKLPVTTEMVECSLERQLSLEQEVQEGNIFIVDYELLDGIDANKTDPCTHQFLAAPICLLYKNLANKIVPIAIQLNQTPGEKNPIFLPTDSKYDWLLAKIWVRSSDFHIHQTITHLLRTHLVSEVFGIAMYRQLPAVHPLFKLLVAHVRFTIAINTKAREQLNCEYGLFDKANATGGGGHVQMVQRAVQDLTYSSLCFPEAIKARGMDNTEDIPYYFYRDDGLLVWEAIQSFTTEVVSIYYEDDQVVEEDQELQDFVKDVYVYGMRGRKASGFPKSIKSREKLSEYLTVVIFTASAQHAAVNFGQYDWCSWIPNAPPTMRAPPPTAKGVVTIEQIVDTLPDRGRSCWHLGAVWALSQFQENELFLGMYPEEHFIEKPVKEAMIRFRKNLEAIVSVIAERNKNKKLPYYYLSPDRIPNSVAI
ATTRIBUTE_MEASURED: pIC50
The scale used: pIC50 is minus the common logarithm of the concentration in molar units.

[in] I would be grateful if you could share the reported pIC50 for "C[C@@H]1C[C@H]2[C@@H]3CCC4=CC(=O)C=C[C@]4(C)[C@@]3(F)[C@@H](O)C[C@]2(C)[C@@]1(O)C(=O)CO" .
[out] 3.92

[in] I would be grateful if you could share the reported pIC50 for CC(N)CCCNC[C@]1(C)CCC[C@]2(C)c3ccc(C(C)C)cc3CCC12.Cl.Cl (some centres undefined) .
[out] 5.92

[in] I would be grateful if you could share the reported pIC50 for CC(C)c1ccc2c(c1)CC[C@H]1C(C)(CN)CCC[C@]21C.Cl (some centres undefined) .
[out] 5.10

----------
Could you please report measured IC50 for the items listed next?
target: Cyclooxygenase (Bos taurus, UniProt O62664+O62698); experiment: Tested for its inhibitory activity against PGS (prostaglandin synthetase).; format: protein assay

[in] I would be grateful if you could share the reported IC50 for CC(C)c1ccc2c(c1)CCC1[C@](C)(CNCc3ccccc3C(=O)O)CCC[C@]21C.Cl (stereo partly specified) .
[out] 220 µM

[in] I would be grateful if you could share the reported IC50 for CC(C)c1ccc2c(c1)CCC1[C@](C)(CNCC3CCCN3)CCC[C@]21C.Cl.Cl (stereo partly specified) .
[out] 62 µM

[in] I would be grateful if you could share the reported IC50 for CC(C)c1ccc2c(c1)CC[C@H]1C(C)(CN)CCC[C@]21C.Cl (stereo partly specified) .
[out] 71 µM

[in] I would be grateful if you could share the reported IC50 for CCN(CC)CCCC(C)Nc1c2ccc(Cl)cc2nc2ccc(OC)cc12 (stereo unspecified) .
[out] 32.6 µM

[in] I would be grateful if you could share the reported IC50 for CC(N)CCCNC[C@]1(C)CCC[C@]2(C)c3ccc(C(C)C)cc3CCC12.Cl.Cl (stereo partly specified) .
[out] 390 µM

[in] I would be grateful if you could share the reported IC50 for CC(=O)NC(CCN(C[C@]1(C)CCC[C@]2(C)c3ccc(C(C)C)cc3CCC12)C(C)=O)c1ccc(F)cc1 (stereo partly specified) .
[out] 124 µM
